- Test system: A2780 (WT p53)
- test.summary: MTT cytotoxicity assay and Chou-Talalay drug interaction
- Format: cell-based, human
- conditions: A2780 cells with shRNA knockdown of p53, MTT
quantity.measured: IC50 (µM)
One number for each entry, in µM.

Q. Fill blank: measured IC50 of the compound CC1(C)CC(C)(C)c2cc(NC(=S)Nc3ccc([N+](=O)[O-])cc3)ccc2S1 is ____.
A. 4.8

Ref: patent US20230346743A1
